B1: LINE1-mini (parent)
chain: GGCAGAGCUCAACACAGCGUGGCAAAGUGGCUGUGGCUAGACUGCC

- Variants of: B1
- experimentalProtocol: self-cleavage, relative activity (ratio to wild type); higher = more cleavage; in vitro, sequencing; the parent is a self-cleaving ribozyme

{"mutationString": "G2U C37A", "self-cleavage": 0.03}
{"mutationString": "G35A C45G", "self-cleavage": 0.13}
{"mutationString": "A12U G44A", "self-cleavage": 0.22}
{"mutationString": "U28C C37U", "self-cleavage": 0.06}
{"mutationString": "C23U A26C", "self-cleavage": 0.64}
{"mutationString": "C18U A26G", "self-cleavage": 0.65}
{"mutationString": "A16U G36A", "self-cleavage": 0.06}
{"mutationString": "G21U C46A", "self-cleavage": 1.14}
{"mutationString": "A14C C18G", "self-cleavage": 0.05}
{"mutationString": "U28G C46G", "self-cleavage": 0.99}
{"mutationString": "A26C U32A", "self-cleavage": 0.14}
{"mutationString": "G33C A41U", "self-cleavage": 0.08}
{"mutationString": "C13U G29A", "self-cleavage": 0.28}
{"mutationString": "C15A C31U", "self-cleavage": 0.04}
